Biological target: EP4 subtype of the human PGE2 receptor (Homo sapiens)
Sequence (P35408 whole entry): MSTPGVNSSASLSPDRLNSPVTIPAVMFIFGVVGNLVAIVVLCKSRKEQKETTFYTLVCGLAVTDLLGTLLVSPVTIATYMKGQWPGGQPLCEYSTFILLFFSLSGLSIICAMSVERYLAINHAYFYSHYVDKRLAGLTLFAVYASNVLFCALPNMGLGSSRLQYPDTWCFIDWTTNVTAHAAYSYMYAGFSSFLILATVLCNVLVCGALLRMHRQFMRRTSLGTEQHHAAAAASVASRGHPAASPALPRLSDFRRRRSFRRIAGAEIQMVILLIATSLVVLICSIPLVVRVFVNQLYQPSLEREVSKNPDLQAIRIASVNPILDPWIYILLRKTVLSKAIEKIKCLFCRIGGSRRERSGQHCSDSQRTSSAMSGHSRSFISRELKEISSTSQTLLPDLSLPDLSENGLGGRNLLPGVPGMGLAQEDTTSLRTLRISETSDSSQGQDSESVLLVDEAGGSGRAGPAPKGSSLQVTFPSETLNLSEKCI
Assay: cAMP antagonism test on the human EP4 receptor (HTRF cAMP detection)
Type: cell-based
Details: selectivity towards hEP4, IC50 measured by cAMP antagonism test
From the text: 2. Detection of Antagonism to the Human Prostaglandin E2 (Subtype EP4) Receptor Signal The binding of PGE2 to the EP4 subtype of the human PGE2 receptor induces the activation of membrane-located adenylate cyclases and leads to the formation of cAMP. […] In this test, the cAMP present in the lysate competes with a fluorescence-labelled cAMP (cAMP-d2) for binding to an Eu cryptate-labelled anti-cAMP antibody. […]
QUANTITY MEASURED: Selectivity hEP2/hEP4

• COCCNC(=O)c1ccc2nn(CC3CCN(C(=O)c4ccc(-c5ccccc5C)cc4)CC3)cc2c1C = xxx (xxx > 100)
• Cc1cc2nn(CC3CCN(C(=O)c4ccc(-c5ccc(F)cc5)cc4)CC3)cc2cc1C(=O)NCCN1CCOCC1 = xxx (xxx > 100)
• Cc1c(C(=O)NCC(F)(F)F)ccc2nn(CC3CN(C(=O)c4ccc(Cl)cc4)C3)cc12 = xx (xx: 10-100)
• COCCNC(=O)c1ccc2nn(CC3CN(C(=O)c4ccc(Cl)cc4F)C3)cc2c1C = xxx (xxx > 100)
• Cc1c(C(=O)NCCS(C)(=O)=O)ccc2nn(CC3CCN(C(=O)c4ccc(Oc5ccc(C(F)(F)F)cn5)cc4)CC3)cc12 = xxx (xxx > 100)
• Cc1c(C(=O)NCC2CCCCO2)ccc2nn(CC3CCN(C(=O)c4ccc(Oc5ccc(C(F)(F)F)cc5)cc4)CC3)cc12 (single isomer, unassigned) [Example 417] = xxx (xxx > 100)
• COC(C)CNC(=O)c1ccc2nn(CC3CN(C(=O)c4ccc(Cl)cc4)C3)cc2c1C (racemic) [Example 138] = xxx (xxx > 100)
• Cc1c(C(=O)NCC(F)(F)F)ccc2nn(CC3CCN(C(=O)c4ccc(Oc5ccc(C(F)(F)F)cn5)cc4)CC3)cc12 = xxx (xxx > 100)
• Cc1c(C(=O)NCCN2CCOCC2)ccc2nn(CC3CCN(C(=O)c4cccc(OC(F)(F)F)c4)CC3)cc12 = xx (xx: 10-100)
• Cc1c(C(=O)NCCN2CCC(F)(F)C2)ccc2nn(CC3CN(C(=O)c4ccc(Cl)cc4)C3)cc12 = xxx (xxx > 100)
• COCCNC(=O)c1cc2cn(CC3CCN(C(=O)c4cn(C)c5ccccc45)CC3)nc2cc1C = xxx (xxx > 100)
• CCOCCNC(=O)c1ccc2nn(CC3CN(C(=O)c4ccc(Cl)cc4)C3)cc2c1OC = xxx (xxx > 100)
• Cc1c(C(=O)NCC2COCCO2)ccc2nn(CC3CN(C(=O)c4ccc(Cl)cc4)C3)cc12 (single isomer, unassigned) [Example 142] = xx (xx: 10-100)
• COCCNC(=O)c1ccc2nn(CC3CCN(C(=O)c4ccc(OC5CCCC5)cc4)CC3)cc2c1C = xxx (xxx > 100)
